- Organism: Rattus norvegicus
- protocol: Open TG-GATES - Regimen: Daily Repeat
- Type: toxicity, organism-based, Sprague-Dawley
- Parameters: regimen Daily Repeat, gender Male, age 6 weeks
- assay-setup: in vivo, po, 300 mg/kg, 72 h, tissue Plasma, route gavage, dose level Middle, time 3 day
measurement-type: TC (mg/dL)

| structure-as-smiles | measured-number |
| --- | --- |
| CCOc1ccc(NC(C)=O)cc1 | 80.4 |
| COC(=O)C1=C(C)NC(C)=C(C(=O)OC)C1c1ccccc1[N+](=O)[O-] | 89.4 |
| CN/C(=N/CCSCc1nc[nH]c1C)NC#N | 79.2 |
| Cc1nnc2n1-c1ccc(Cl)cc1C(c1ccccc1Cl)=NC2 | 81 |
| CNC(=C[N+](=O)[O-])NCCSCc1ccc(CN(C)C)o1 | 78.4 |
| O=C(OC[C@H]1O[C@@H](OC(=O)c2cc(O)c(O)c(OC(=O)c3cc(O)c(O)c(O)c3)c2)[C@H](OC(=O)c2cc(O)c(O)c(OC(=O)c3cc(O)c(O)c(O)c3)c2)[C@@H](OC(=O)c2cc(O)c(O)c(OC(=O)c3cc(O)c(O)c(O)c3)c2)[C@@H]1OC(=O)c1cc(O)c(O)c(OC(=O)c2cc(O)c(O)c(O)c2)c1)c1cc(O)c(O)c(OC(=O)c2cc(O)c(O)c(O)c2)c1 | 84.6 |

* * *

- Organism: Rattus norvegicus
- protocol: Open TG-GATES - Regimen: Daily Repeat
- Format: toxicity, organism-based, Sprague-Dawley
- Parameters: regimen Daily Repeat, gender Male, age 6 weeks
- assay-setup: in vivo, po, 0 mg/kg, […], tissue Plasma, route gavage, dose level Control, time 14 day
Each entry below carries its recorded CRE.

| compound | CRE / mg/dL |
| --- | --- |
| CN/C(=N/CCSCc1nc[nH]c1C)NC#N [CIMETIDINE] | 0.4 |
| CN(C)CCC(c1ccc(Cl)cc1)c1ccccn1 (stereo not drawn) [CHLORPHENIRAMINE] | 0.2 |
| Brc1ccccc1 [BROMOBENZENE] | 0.2 |
| CCOc1ccc(NC(C)=O)cc1 [PHENACETIN] | 0.2 |
| NC1=NC(=O)C(c2ccccc2)O1 (stereo not drawn) [PEMOLINE] | 0.2 |
| COC(=O)C1=C(C)NC(C)=C(C(=O)OC)C1c1ccccc1[N+](=O)[O-] [NIFEDIPINE] | 0.2 |
| O=C(OC[C@H]1O[C@@H](OC(=O)c2cc(O)c(O)c(OC(=O)c3cc(O)c(O)c(O)c3)c2)[C@H](OC(=O)c2cc(O)c(O)c(OC(=O)c3cc(O)c(O)c(O)c3)c2)[C@@H](OC(=O)c2cc(O)c(O)c(OC(=O)c3cc(O)c(O)c(O)c3)c2)[C@@H]1OC(=O)c1cc(O)c(O)c(OC(=O)c2cc(O)c(O)c(O)c2)c1)c1cc(O)c(O)c(OC(=O)c2cc(O)c(O)c(O)c2)c1 [TANNIC ACID] | 0.6 |
| CCCc1cc(=O)[nH]c(=S)[nH]1 [PROPYLTHIOURACIL] | 0.7 |
| Nc1c2c(nc3ccccc13)CCCC2 [TACRINE] | 0.2 |
| CNC(=C[N+](=O)[O-])NCCSCc1ccc(CN(C)C)o1 [RANITIDINE] | 0.5 |
| CN1C(=O)CCS(=O)(=O)C1c1ccc(Cl)cc1 (stereo not drawn) [CHLORMEZANONE] | 0.2 |
| Cc1nnc2n1-c1ccc(Cl)cc1C(c1ccccc1Cl)=NC2 [TRIAZOLAM] | 0.2 |
| CC(C)NNC(=O)c1ccncc1 [IPRONIAZID] | 0.2 |
